Data credit: the kinase profiling compilation of Christmann-Franck et al. (2016)

study.system: NEK5 (human)
measurement.protocol: KINOMEscan competition binding
conditions: compound 10.0 µM
Entries annotated with measured kinase still bound, per cent of control
measured.property: kinase still bound, per cent of control

chemical_structure=CN(C)C/C=C/C(=O)Nc1cccc(Nc2ncc3c(n2)N(C)c2ccccc2C(=O)N3C)c1 measured=58%
chemical_structure=Cn1c(=O)n(-c2ccc(C(C)(C)C#N)cc2)c2c3cc(-c4cnc5ccccc5c4)ccc3ncc21 measured=100%
chemical_structure=Nc1ccc(-c2ccc3ncc4ccc(=O)n(-c5cccc(C(F)(F)F)c5)c4c3c2)cn1 measured=94%
chemical_structure=O=C1Nc2ccc(I)cc2/C1=C/c1cc(Br)c(O)c(Br)c1 measured=87%

----------
Listing of entries alongside the reported kinase still bound, per cent of control.
study.system: MINK1 (human) (UniProt Q8N4C8)
Sequence (Q8N4C8 whole entry, looked up): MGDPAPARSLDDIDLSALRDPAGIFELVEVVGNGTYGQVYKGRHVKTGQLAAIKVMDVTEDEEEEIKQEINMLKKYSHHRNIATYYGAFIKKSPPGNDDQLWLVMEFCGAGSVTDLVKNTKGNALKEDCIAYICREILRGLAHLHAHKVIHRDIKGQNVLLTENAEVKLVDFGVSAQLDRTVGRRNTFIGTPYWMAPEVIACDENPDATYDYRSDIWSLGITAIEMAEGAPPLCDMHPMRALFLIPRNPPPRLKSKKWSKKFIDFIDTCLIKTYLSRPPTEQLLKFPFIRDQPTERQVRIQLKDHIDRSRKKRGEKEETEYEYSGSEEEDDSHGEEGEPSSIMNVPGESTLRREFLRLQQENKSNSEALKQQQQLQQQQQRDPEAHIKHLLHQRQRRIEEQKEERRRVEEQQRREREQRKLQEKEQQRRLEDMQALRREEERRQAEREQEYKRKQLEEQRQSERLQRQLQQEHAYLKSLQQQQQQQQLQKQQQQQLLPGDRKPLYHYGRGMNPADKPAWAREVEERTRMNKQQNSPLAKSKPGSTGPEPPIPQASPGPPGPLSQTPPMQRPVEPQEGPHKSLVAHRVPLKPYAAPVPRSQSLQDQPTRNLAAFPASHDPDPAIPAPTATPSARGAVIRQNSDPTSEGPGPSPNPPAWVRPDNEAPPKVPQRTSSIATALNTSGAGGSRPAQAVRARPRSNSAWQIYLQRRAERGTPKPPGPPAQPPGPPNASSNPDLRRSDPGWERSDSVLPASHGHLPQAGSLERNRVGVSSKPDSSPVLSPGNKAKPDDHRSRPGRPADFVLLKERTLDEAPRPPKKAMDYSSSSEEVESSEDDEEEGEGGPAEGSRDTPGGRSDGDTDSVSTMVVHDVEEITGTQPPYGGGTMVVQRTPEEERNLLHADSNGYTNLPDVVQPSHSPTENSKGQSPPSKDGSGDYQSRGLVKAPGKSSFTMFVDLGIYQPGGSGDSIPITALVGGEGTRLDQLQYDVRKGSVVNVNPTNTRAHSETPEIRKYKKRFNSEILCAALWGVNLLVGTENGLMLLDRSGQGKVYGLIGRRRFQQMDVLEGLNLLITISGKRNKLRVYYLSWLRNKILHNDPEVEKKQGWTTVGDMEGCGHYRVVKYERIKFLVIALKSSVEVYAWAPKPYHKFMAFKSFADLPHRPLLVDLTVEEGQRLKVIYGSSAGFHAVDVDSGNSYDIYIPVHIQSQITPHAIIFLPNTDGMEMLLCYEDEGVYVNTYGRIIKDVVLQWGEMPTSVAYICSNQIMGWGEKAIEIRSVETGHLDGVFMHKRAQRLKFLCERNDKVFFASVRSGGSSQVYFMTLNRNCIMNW
measurement.protocol: KINOMEscan competition binding
conditions: compound 10.0 µM
measured.property: kinase still bound, per cent of control (%)

compound=Nc1ccc(-c2ccc3ncc4ccc(=O)n(-c5cccc(C(F)(F)F)c5)c4c3c2)cn1 measured=56
compound=Cc1ccc(C(=O)Nc2cccc(C(F)(F)F)c2)cc1Nc1cncc(C(N)=O)c1 measured=100
compound=CCC(=O)N1CCN(c2ccc(-n3c(=O)ccc4cnc5ccc(-c6cnc7ccccc7c6)cc5c43)cc2C(F)(F)F)CC1 measured=19
compound=O=C1Nc2ccc(I)cc2/C1=C/c1cc(Br)c(O)c(Br)c1 measured=2.8
compound=C=CC(=O)Nc1cccc(Oc2nc(Nc3ccc(N4CCN(C)CC4)cc3OC)ncc2Cl)c1 measured=100
compound="COc1cc(C(=O)NC2CCN(C)CC2)ccc1Nc1ncc2c(n1)N(C1CCCC1)C(C)CC(=O)N2C (stereo unspecified)" measured=100
compound=CCN1CCN(Cc2ccc(Nc3ncc4c(n3)N(C)c3ccccc3C(=O)N4C)cc2C(F)(F)F)CC1 measured=68
compound=C=CC(=O)Nc1cc(NC(=O)c2ccc(C)c(NC(=O)c3ccno3)c2)cc(C(F)(F)F)c1 measured=84
compound=Cc1cc([C@@H](C)Nc2ccccc2C(=O)O)c2nc(N3CCOCC3)cc(=O)n2c1 measured=100
compound=O=C(NOC[C@H](O)CO)c1ccc(F)c(F)c1Nc1ccc(I)cc1F measured=94
compound=N#Cc1c(NC(=O)c2cccc3ccccc23)sc2c1CCCC2 measured=95
compound=CC[C@@H]1C(=O)N(C)c2cnc(Nc3ccc(C(=O)NC4CCN(C)CC4)cc3OC)nc2N1C1CCCC1 measured=100
compound=COc1cc(C(=O)NC2CCN(C)CC2)ccc1Nc1ncc2c(n1)N(C1CCCC1)CCC(=O)N2C(C)C measured=100
compound=O=C(O)c1ccc(Nc2ncc3c(n2)-c2ccc(Cl)cc2C(c2c(F)cccc2F)=NC3)cc1 measured=100
compound=COc1cc(N2CCN(C)CC2)ccc1Nc1nc(N)c(C(=O)c2c(Cl)cccc2Cl)s1 measured=61
compound=CN(C)C/C=C/C(=O)Nc1cccc(Nc2ncc3c(n2)N(C)c2ccccc2C(=O)N3C)c1 measured=29
compound=Cc1ccc2nc(NCCN)c3ncc(C)n3c2c1 measured=100
compound=C[C@@H](Oc1cc(-n2cnc3ccc(CN4CCN(C)CC4)cc32)sc1C(N)=O)c1ccccc1C(F)(F)F measured=29
compound=CCCS(=O)(=O)Nc1ccc(F)c(C(=O)c2c[nH]c3ncc(-c4ccc(Cl)cc4)cc23)c1F measured=38
compound=Cc1ccc(NC(=O)c2cccc(C(C)(C)C#N)c2)cc1Nc1ccc2ncn(C)c(=O)c2c1 measured=7.2
compound=C=CC(=O)Nc1cccc(Nc2nc(N[C@H]3CC[C@H](N(C)C)CC3)nc3c2ncn3C(C)C)c1 measured=27

----------
study.system: MYLK4 (human)
measurement.protocol: KINOMEscan competition binding
conditions: compound 10.0 µM
We begin with a simple list: items and their reported kinase still bound, per cent of control.
measured.property: kinase still bound, per cent of control (%)

compound=O=C(O)c1ccc(Nc2ncc3c(n2)-c2ccc(Cl)cc2C(c2c(F)cccc2F)=NC3)cc1 measured_property="kinase still bound, per cent of control" measured=89
compound=C=CC(=O)Nc1cccc(Nc2nc(N[C@H]3CC[C@H](N(C)C)CC3)nc3c2ncn3C(C)C)c1 measured_property="kinase still bound, per cent of control" measured=88
compound=Cn1c(=O)n(-c2ccc(C(C)(C)C#N)cc2)c2c3cc(-c4cnc5ccccc5c4)ccc3ncc21 measured_property="kinase still bound, per cent of control" measured=100
compound="COc1cc(C(=O)NC2CCN(C)CC2)ccc1Nc1ncc2c(n1)N(C1CCCC1)C(C)CC(=O)N2C (stereo not drawn)" measured_property="kinase still bound, per cent of control" measured=100
compound=Cc1ccc(C(=O)Nc2cccc(C(F)(F)F)c2)cc1Nc1cncc(C(N)=O)c1 measured_property="kinase still bound, per cent of control" measured=100
compound=O=C(NC1CC1)c1cccc(-c2ccc3c(NC(=O)C4CC4)n[nH]c3c2)c1 measured_property="kinase still bound, per cent of control" measured=42
compound=OCCCNc1cc(-c2ccnc(Nc3cccc(Cl)c3)n2)ccn1 measured_property="kinase still bound, per cent of control" measured=100
compound=C=CC(=O)Nc1cc(NC(=O)c2ccc(C)c(NC(=O)c3ccno3)c2)cc(C(F)(F)F)c1 measured_property="kinase still bound, per cent of control" measured=97

----------
study.system: FGFR3 (human)
measurement.protocol: KINOMEscan competition binding
conditions: compound 10.0 µM
measured.property: kinase still bound, per cent of control

compound=COc1cc(N2CCN(C)CC2)ccc1Nc1nc(N)c(C(=O)c2c(Cl)cccc2Cl)s1 measured_property="kinase still bound, per cent of control" measured=99%
compound=CCC(=O)N1CCN(c2ccc(-n3c(=O)ccc4cnc5ccc(-c6cnc7ccccc7c6)cc5c43)cc2C(F)(F)F)CC1 measured_property="kinase still bound, per cent of control" measured=42%
compound=Nc1ccc(-c2ccc3ncc4ccc(=O)n(-c5cccc(C(F)(F)F)c5)c4c3c2)cn1 measured_property="kinase still bound, per cent of control" measured=75%
compound=Cc1ccc(NC(=O)c2cccc(C(C)(C)C#N)c2)cc1Nc1ccc2ncn(C)c(=O)c2c1 measured_property="kinase still bound, per cent of control" measured=100%
compound=CN(C)C/C=C/C(=O)Nc1cccc(Nc2ncc3c(n2)N(C)c2ccccc2C(=O)N3C)c1 measured_property="kinase still bound, per cent of control" measured=12%
compound=Cc1ccc(C(=O)Nc2cccc(C(F)(F)F)c2)cc1Nc1cncc(C(N)=O)c1 measured_property="kinase still bound, per cent of control" measured=100%
compound=O=C(NOC[C@H](O)CO)c1ccc(F)c(F)c1Nc1ccc(I)cc1F measured_property="kinase still bound, per cent of control" measured=100%
compound=O=C1Nc2ccc(I)cc2/C1=C/c1cc(Br)c(O)c(Br)c1 measured_property="kinase still bound, per cent of control" measured=84%
compound=C=CC(=O)Nc1cccc(Oc2nc(Nc3ccc(N4CCN(C)CC4)cc3OC)ncc2Cl)c1 measured_property="kinase still bound, per cent of control" measured=100%
compound=CCCS(=O)(=O)Nc1ccc(F)c(C(=O)c2c[nH]c3ncc(-c4ccc(Cl)cc4)cc23)c1F measured_property="kinase still bound, per cent of control" measured=93%
compound="COc1cc(C(=O)NC2CCN(C)CC2)ccc1Nc1ncc2c(n1)N(C1CCCC1)C(C)CC(=O)N2C (stereo not drawn)" measured_property="kinase still bound, per cent of control" measured=100%
compound=CCN1CCN(Cc2ccc(Nc3ncc4c(n3)N(C)c3ccccc3C(=O)N4C)cc2C(F)(F)F)CC1 measured_property="kinase still bound, per cent of control" measured=43%
compound=O=C(O)c1ccc(Nc2ncc3c(n2)-c2ccc(Cl)cc2C(c2c(F)cccc2F)=NC3)cc1 measured_property="kinase still bound, per cent of control" measured=9%
compound=C=CC(=O)Nc1cccc(Nc2nc(N[C@H]3CC[C@H](N(C)C)CC3)nc3c2ncn3C(C)C)c1 measured_property="kinase still bound, per cent of control" measured=68%
compound=C=CC(=O)Nc1cc(NC(=O)c2ccc(C)c(NC(=O)c3ccno3)c2)cc(C(F)(F)F)c1 measured_property="kinase still bound, per cent of control" measured=97%
compound=Cc1cc([C@@H](C)Nc2ccccc2C(=O)O)c2nc(N3CCOCC3)cc(=O)n2c1 measured_property="kinase still bound, per cent of control" measured=83%
compound=C[C@@H](Oc1cc(-n2cnc3ccc(CN4CCN(C)CC4)cc32)sc1C(N)=O)c1ccccc1C(F)(F)F measured_property="kinase still bound, per cent of control" measured=80%
compound=OCCCNc1cc(-c2ccnc(Nc3cccc(Cl)c3)n2)ccn1 measured_property="kinase still bound, per cent of control" measured=100%
compound=CC[C@@H]1C(=O)N(C)c2cnc(Nc3ccc(C(=O)NC4CCN(C)CC4)cc3OC)nc2N1C1CCCC1 measured_property="kinase still bound, per cent of control" measured=100%
compound=Cn1c(=O)n(-c2ccc(C(C)(C)C#N)cc2)c2c3cc(-c4cnc5ccccc5c4)ccc3ncc21 measured_property="kinase still bound, per cent of control" measured=100%
compound=CCOc1cc2ncc(C#N)c(Nc3ccc(OCc4ccccn4)c(Cl)c3)c2cc1NC(=O)/C=C/CN(C)C measured_property="kinase still bound, per cent of control" measured=98%
compound=COc1cc(C(=O)NC2CCN(C)CC2)ccc1Nc1ncc2c(n1)N(C1CCCC1)CCC(=O)N2C(C)C measured_property="kinase still bound, per cent of control" measured=100%
compound=N#Cc1c(NC(=O)c2cccc3ccccc23)sc2c1CCCC2 measured_property="kinase still bound, per cent of control" measured=100%
